target.system: CRBN/DDB1 (Homo sapiens (Human))
Sequence (Q96SW2 whole entry, species assumed): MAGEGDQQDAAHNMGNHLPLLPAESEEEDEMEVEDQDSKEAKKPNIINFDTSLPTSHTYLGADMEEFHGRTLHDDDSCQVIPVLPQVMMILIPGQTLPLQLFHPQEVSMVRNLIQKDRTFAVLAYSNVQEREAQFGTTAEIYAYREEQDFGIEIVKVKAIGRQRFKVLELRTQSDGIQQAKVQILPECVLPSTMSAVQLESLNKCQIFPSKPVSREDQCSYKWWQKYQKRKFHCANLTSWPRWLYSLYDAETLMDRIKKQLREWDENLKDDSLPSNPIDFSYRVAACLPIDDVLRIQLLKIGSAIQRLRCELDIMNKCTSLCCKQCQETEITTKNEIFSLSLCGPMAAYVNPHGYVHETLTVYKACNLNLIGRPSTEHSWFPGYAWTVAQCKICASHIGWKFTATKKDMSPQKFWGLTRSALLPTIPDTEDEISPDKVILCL
Sequence (Q16531 whole entry partner, species assumed): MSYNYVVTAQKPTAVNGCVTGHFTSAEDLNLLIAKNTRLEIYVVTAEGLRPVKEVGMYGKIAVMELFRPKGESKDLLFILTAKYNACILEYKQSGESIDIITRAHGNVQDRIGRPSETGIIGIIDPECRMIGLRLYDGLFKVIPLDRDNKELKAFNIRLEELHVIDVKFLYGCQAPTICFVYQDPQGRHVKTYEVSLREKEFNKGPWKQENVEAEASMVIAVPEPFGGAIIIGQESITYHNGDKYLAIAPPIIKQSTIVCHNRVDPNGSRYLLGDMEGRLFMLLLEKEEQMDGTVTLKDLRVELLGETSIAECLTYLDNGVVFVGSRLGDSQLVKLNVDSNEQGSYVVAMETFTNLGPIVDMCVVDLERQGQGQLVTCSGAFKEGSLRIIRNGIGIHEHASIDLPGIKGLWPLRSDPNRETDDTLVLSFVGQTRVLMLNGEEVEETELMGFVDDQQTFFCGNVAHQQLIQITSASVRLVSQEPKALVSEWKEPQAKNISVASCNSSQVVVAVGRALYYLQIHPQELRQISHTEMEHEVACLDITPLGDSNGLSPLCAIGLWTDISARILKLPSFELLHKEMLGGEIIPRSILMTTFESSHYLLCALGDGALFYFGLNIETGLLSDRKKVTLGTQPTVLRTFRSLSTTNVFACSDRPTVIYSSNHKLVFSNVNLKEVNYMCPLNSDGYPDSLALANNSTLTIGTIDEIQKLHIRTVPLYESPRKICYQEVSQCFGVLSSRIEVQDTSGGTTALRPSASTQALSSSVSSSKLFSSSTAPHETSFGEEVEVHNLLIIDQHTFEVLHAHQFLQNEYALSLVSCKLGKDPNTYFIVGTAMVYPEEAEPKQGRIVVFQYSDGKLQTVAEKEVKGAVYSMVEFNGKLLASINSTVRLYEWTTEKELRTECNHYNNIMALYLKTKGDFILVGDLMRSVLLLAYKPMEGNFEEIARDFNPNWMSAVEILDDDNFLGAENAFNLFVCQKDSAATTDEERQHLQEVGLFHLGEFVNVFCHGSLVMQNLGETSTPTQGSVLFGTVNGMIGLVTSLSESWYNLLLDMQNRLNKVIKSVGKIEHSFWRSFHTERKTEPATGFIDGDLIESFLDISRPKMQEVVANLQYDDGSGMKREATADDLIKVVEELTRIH
condition.summary: His tagged CRBN+DDB1, Cy5-labeled Thalidomide probe, one hour; read-out: CRBN HTRF IC50
pIC50: −log10 of the molar value.
Would you kindly list pIC50 for each of these molecules?

IN: Quickly give me recorded pIC50 for O=C1CC[C@H](N2Cc3cc4c(cc3C2=O)OC[C@@H]2CN(CC3CCC5(CC3)CN(c3ccc([C@@H]6c7ccc(O)cc7CC[C@@H]6c6ccccc6)cc3)C5)CCN42)C(=O)N1 (single isomer, unassigned)
OUT: 5.30 to 6.30

IN: Quickly give me recorded pIC50 for COc1cc(N2CCC3(CC2)CC(CN2CCN4c5cc6c(cc5OC[C@@H]4C2)C(=O)N([C@H]2CCC(=O)NC2=O)C6)C3)ccc1[C@@H]1c2ccc(O)cc2CC[C@@H]1c1ccccc1 (single isomer, unassigned)
OUT: 6.30 to 7.30

IN: Quickly give me recorded pIC50 for COc1cc(N2CCC(CN3CCN4c5ccc6c(c5OC[C@@H]4C3)CN([C@@H]3CCC(=O)NC3=O)C6=O)CC2)ccc1[C@@H]1c2ccc(O)cc2CC[C@@H]1c1ccccc1 (stereo in doubt)
OUT: > 7.30

IN: Quickly give me recorded pIC50 for O=C1CCC(NC(=O)c2ccc(N3CCN(CC4CCN(c5ccc([C@@H]6c7ccc(O)cc7CC[C@@H]6c6ccccc6)cc5)CC4)CC3)cn2)C(=O)N1 (stereo partly drawn)
OUT: < 5.30

IN: Quickly give me recorded pIC50 for O=C1CC[C@H](N2Cc3cc4c(cc3C2=O)OC[C@@H]2CN(CC3CC5(CCN(c6ccc([C@@H]7c8ccc(O)cc8CC[C@@H]7c7ccccc7)cn6)CC5)C3)CCN42)C(=O)N1 (single isomer, unassigned)
OUT: 5.30 to 6.30

IN: Quickly give me recorded pIC50 for O=C1CC[C@H](NC(=O)c2ccc3c(n2)OC[C@H]2CN(C[C@H]4COC5(CCN(c6ccc([C@H]7c8ccc(O)cc8CC[C@H]7c7ccccc7)cc6)CC5)C4)CCN32)C(=O)N1 (single isomer, unassigned)
OUT: 5.30 to 6.30

IN: Quickly give me recorded pIC50 for O=C1CCC(Nc2ccc(C34CCN(C[C@@H]5COC6(CCN(c7ccc([C@@H]8c9ccc(O)cc9CC[C@@H]8c8ccccc8)cc7)CC6)C5)CC3C4(F)F)cc2)C(=O)N1 (stereo partly drawn)
OUT: < 5.30

IN: Quickly give me recorded pIC50 for `O=C1CC[C@@H](Nc2ccc([C@@]34CCN(CC5CC6(CCN(c7ccc([C@@H]8c9ccc(O)cc9CC[C@@H]8c8ccccc8)cc7)CC6)C5)C[C@@H]3C4(F)F)cc2)C(=O)N1`
OUT: < 5.30

IN: Quickly give me recorded pIC50 for O=C1CC[C@H](NC(=O)c2ccc3c(n2)OC[C@H]2CN(C[C@H]4COC5(CCN(c6ccc([C@@H]7c8ccc(O)cc8CC[C@@H]7c7ccccc7)cc6)CC5)C4)CCN32)C(=O)N1 (single isomer, unassigned)
OUT: 5.30 to 6.30
